// provenance: PubChem BioAssay

# Measured On: E3 ubiquitin-protein ligase XIAP (Homo sapiens) (UniProt P98170)
# Sequence (P98170 whole entry, looked up): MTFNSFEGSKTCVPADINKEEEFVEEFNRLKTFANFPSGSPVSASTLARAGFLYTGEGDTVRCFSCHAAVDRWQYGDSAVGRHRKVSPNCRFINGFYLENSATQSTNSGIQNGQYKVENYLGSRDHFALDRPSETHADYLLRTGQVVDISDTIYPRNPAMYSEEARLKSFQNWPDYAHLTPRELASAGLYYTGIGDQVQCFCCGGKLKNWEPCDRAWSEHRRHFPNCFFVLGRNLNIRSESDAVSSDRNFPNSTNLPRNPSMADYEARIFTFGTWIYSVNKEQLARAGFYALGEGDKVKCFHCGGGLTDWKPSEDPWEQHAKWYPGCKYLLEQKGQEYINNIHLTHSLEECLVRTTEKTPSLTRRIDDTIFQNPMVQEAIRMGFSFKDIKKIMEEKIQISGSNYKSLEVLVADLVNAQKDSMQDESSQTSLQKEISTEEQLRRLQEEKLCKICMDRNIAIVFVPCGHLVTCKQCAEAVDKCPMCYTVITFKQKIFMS
# Assay Explanation: XIAP binders, primary screen, biophysical, small-molecule microarray, fluorescence 635 nm (AID 1181);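 note: score merges 667 nm emission and signal to noise over triplicate slides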
# Test Parameters: small-molecule microarray binding, higher = more signal
composite z-score listing for selected molecules.
Lab note: record the figure alone, no unit after it.

Molecule: O=C(O)[C@H]1C[C@H]2C(=O)N[C@@H](Cc3ccccc3)C(=O)N2[C@H]1c1ccc(O)cc1
composite z-score: 0.117

Molecule: C=CCN1C(=O)[C@]2(O[C@H](CCn3cc([C@H](O)c4ccccc4)nn3)[C@@H]([Si](C)(C)c3ccc(OC)cc3)[C@@H]2C)c2cc(N3CCOC3=O)ccc21
composite z-score: -0.0721

Molecule: CC(C)C[C@@H]1NC(=O)[C@@]23C(=O)N[C@@H](Cc4ccccc4)C2[C@H](C)[C@@]2(C)O[C@H]2C3/C=C/C/C=C\CNC(=O)[C@H](Cc2ccccc2)NC1=O (some centres not stated)
composite z-score: 0.52

Molecule: NCCCCCCNC(=O)[C@@H]1C[C@@H]2C(=O)N[C@@H](Cc3ccccc3)C(=O)N2[C@@H]1c1ccc(O)cc1
composite z-score: -0.305

Molecule: COCCCNC(=O)[C@@]1(Cc2ccccc2)N=C(c2ccc(OCCCO)cc2)O[C@H]1c1ccccc1N=[N+]=[N-]
composite z-score: 0.085

(Q) composite z-score of `COCCCNC(=O)[C@@]1(CCS(=O)(=O)c2ccccc2)N=C(c2ccc(OCCCO)cc2)O[C@H]1c1ccccc1CN=[N+]=[N-]` on E3 ubiquitin-protein ligase XIAP (Homo sapiens) (UniProt P98170)?
(A) 0.0871

(Q) `C=C(COC)C(=O)CC[C@@H](OC(=O)c1ccccc1-c1ccccc1C(=O)O)c1cccc(OCCO)c1` ?
(A) 0.109

* * *

# Assay Explanation: PSAC antagonists in infected red cells, primary screen, cell-based, P. falciparum Indochina, OD700, 18 h (AID 1157)
# Test Parameters: P. falciparum Indochina infected erythrocytes, osmotic lysis OD700, 18 h; higher = more signal, called active from +8 up or from −8 down
Parameter: z-score
Simply state the number, no unit and no words.

Compound: C[C@@H](OCc1ccccc1)C1NC(=O)[C@@]23C(=O)N[C@@H](Cc4ccccc4)C2[C@H](C)[C@@]2(C)O[C@H]2C3/C=C/C/C=C\CNC(=O)[C@@H]2CCCN2C1=O (some centres not stated)
Measured Value: 0.231
//
Compound: CCCCCN1CC=CC23O[C@@H]4/C=C\CCC(C)OC(=O)C4[C@H]2C(=O)N(CCO)[C@@H]3C1=O (some centres not stated)
Measured Value: 0.0613
//
Compound: [N-]=[N+]=NCc1ccccc1C[C@@]1(C(=O)O)N=C(c2ccc(OCCCO)cc2)O[C@@H]1c1ccccc1
Measured Value: 0.199
//
Compound: C=C(C1=CCN(S(=O)(=O)c2ccc(C)cc2)C1)[C@@H](OC(C)=O)[C@@H]1CCCN1S(=O)(=O)c1ccccc1[N+](=O)[O-]
Measured Value: 0.623
//
Compound: C=CCNC(=O)[C@H]1[C@@H]2C(=O)O[C@@H](c3ccccc3)[C@@H](c3ccccc3)N2[C@@H](c2ccc(OCCO)cc2)[C@]12C(=O)Nc1ccc(C#CCCO)cc12
Measured Value: -2.03
//
Compound: COCCCNC(=O)[C@@]1(CCS(=O)(=O)c2ccccc2)N=C(c2ccc(OCCCO)cc2)O[C@H]1c1ccccc1CN=[N+]=[N-]
Measured Value: 0.425

In the following, a different compound is considered.
(Q) Data request, read-out z-score, for `C=CCNC(=O)[C@@H]1[C@H]2C(=O)O[C@H](c3ccccc3)[C@H](c3ccccc3)N2[C@H](c2ccc(O)cc2)[C@@]12C(=O)N(C(=O)OCCOC)c1ccc(C#Cc3ccc(OC)cc3)cc12`
(A) 0.804

* * *

# Assay Explanation: CREB reporter modulators without forskolin, primary screen, cell-based, PC12, CRE-LacZ reporter, unstimulated (AID 1145)
# Test Parameters: no forskolin, luminescence, 4.5 h, higher = more signal, called active from +8 up or from −8 down
Parameter: z-score
Respond numerically, and do not add a unit to the figure.

Worked examples follow.
Compound: C=C(COC)C(=O)CC[C@@H](OC(=O)c1ccccc1-c1ccccc1C(=O)O)c1cccc(OCCO)c1
z-score: 2.37
//
Compound: C#CCN1C(C(=O)OCC)OC[C@H]1c1ccccc1 (some centres undefined)
z-score: 1.12
//
Compound: C=CCNC(=O)[C@@H]1[C@H]2C(=O)O[C@H](c3ccccc3)[C@H](c3ccccc3)N2[C@H](c2ccc(O)cc2)[C@@]12C(=O)N(C(=O)OCCOC)c1ccc(C#Cc3ccc(OC)cc3)cc12
z-score: -0.203

(Q) Need z-score, item `CCCCCCC#C[Si](O[C@H](c1ccccc1)c1cn(Cc2ccccc2)nn1)(C(C)C)C(C)C`
(A) -1.23

(Q) One more compound: `COCCOC(=O)N1C(=O)[C@@]2(c3cc(C#CC4(O)CCCCCC4)ccc31)[C@H](C(=O)NC[C@H](O)c1ccccc1)[C@H]1C(=O)O[C@H](c3ccccc3)[C@H](c3ccccc3)N1[C@@H]2c1ccccc1OCCO`
(A) -0.203

(Q) Okay, and `[N-]=[N+]=Nc1ccccc1[C@H]1OC(c2ccc(OCCCO)cc2)=N[C@@]1(Cc1ccccc1)C(N)=O` ?
(A) 0.862

(Q) And for CCCCCN1CC=CC23O[C@@H]4/C=C\CCC(C)OC(=O)C4[C@H]2C(=O)N(CCO)[C@@H]3C1=O (some centres undefined) ?
(A) 1.02

(Q) Entry to check: `CO[C@H]1O[C@H](CO)[C@@H](OC(=O)Nc2ccccc2)[C@H](OC(=O)Nc2ccccc2-c2ccccc2)[C@@H]1OC(=O)Nc1ccccc1-c1ccccc1`
(A) 0.204

(Q) `CCOC(=O)C[C@H]1[C@H](OC(=O)Cc2ccc3c(c2)OCO3)[C@@H](NC(=O)c2ccc3ccccc3c2)c2cc(OCCCO)ccc2N1C(=O)c1ccc2ccccc2n1` ?
(A) 7.41

(Q) Then this compound: `[N-]=[N+]=NCc1ccccc1C[C@@]1(C(=O)NCc2ccccc2)N=C(c2ccc(OCCCO)cc2)O[C@@H]1c1ccccc1`
(A) 0.596

(Q) Could you do the same for `O=C1c2ccccc2C(=O)c2cc([C@H]3Oc4ccccc4S(=O)(=O)N4CCC[C@@H]34)ccc21` , please?
(A) 4.29

(Q) `CCOC(=O)C[C@H]1[C@H](OC(=O)c2ccc(-c3ccccc3)cc2)[C@@H](NC(=O)c2ccccc2)c2cc(OCCCO)ccc2N1C(=O)c1ccccc1` ?
(A) 0.251

(Q) Moving on to `CO[C@H]1O[C@H](CO)[C@@H](OC(=O)Nc2ccccc2)[C@H](OC(=O)Nc2ccccc2-c2ccccc2)[C@H]1OC(=O)Nc1ccccc1-c1ccccc1`
(A) 1.56

(Q) Param item: `O=c1n(-c2ccccc2)c(=O)n2n1CC(COc1ccccc1)=C1[C@@H](CCc3ccccc3)OB(O)C[C@@H]12`
(A) 1.58

* * *

# Measured On: Homeobox protein Hox-A13 (Mus musculus) (UniProt Q62424)
# Sequence (Q62424 whole entry, looked up): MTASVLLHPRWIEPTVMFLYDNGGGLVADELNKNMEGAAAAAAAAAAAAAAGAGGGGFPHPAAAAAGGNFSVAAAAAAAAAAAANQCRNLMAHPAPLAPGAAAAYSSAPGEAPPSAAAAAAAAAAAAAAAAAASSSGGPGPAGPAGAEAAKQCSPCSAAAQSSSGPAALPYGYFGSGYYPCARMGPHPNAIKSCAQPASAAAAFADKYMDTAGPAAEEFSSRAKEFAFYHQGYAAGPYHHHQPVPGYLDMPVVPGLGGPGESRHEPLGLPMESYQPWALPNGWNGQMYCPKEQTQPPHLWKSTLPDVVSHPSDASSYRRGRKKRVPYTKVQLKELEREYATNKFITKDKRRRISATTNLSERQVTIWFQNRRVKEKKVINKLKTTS
# Assay Explanation: inhibitors of HoxA13-DNA binding, primary screen, biochemical, fluorescence polarization, labeled oligonucleotide (AID 1185)
# Test Parameters: 15 min, higher = more signal, called active from +8 up or from −8 down
Active and inactive are the calls of the source.
// values below are reported z-score

Solved cases (2 shown):
Structure Smiles: COC(=O)C(CC#Cc1ccc2c(c1)[C@]1(C(=O)N2)[C@H](c2ccccc2OCCO)N2[C@H](c3ccccc3)[C@H](c3ccccc3)OC(=O)[C@H]2[C@@H]1C(=O)N1CCCCCCC1)C(=O)OC
Measured On: Homeobox protein Hox-A13 (Mus musculus) (UniProt Q62424)
z-score: 3.62 (inactive)
//
Structure Smiles: COCCCNC(=O)[C@@]1(CCS(=O)(=O)c2ccccc2)N=C(c2ccc(OCCCO)cc2)O[C@H]1c1ccccc1CN=[N+]=[N-]
Measured On: Homeobox protein Hox-A13 (Mus musculus) (UniProt Q62424)
z-score: -1.88 (inactive)

(Q) Record request: z-score value, item `COc1ccc([Si](C)(C)[C@@H]2[C@@H](CCn3cc([C@H](O)c4ccccc4)nn3)O[C@]3(C(=O)N(C)c4c(Br)cc(C)cc43)[C@H]2C)cc1`
(A) -3.19 (inactive)

* * *

# Assay Explanation: adipocyte viability effects, profiling panel, cell-based, 3T3-L1 adipocytes, calcein-AM fluorescence, 48 h, basal (AID 1163); note: test concentration not given here
# Test Parameters: 3T3-L1 adipocytes viability, higher = more signal
// z-score lookup, one value per entry
When you answer, write just the number.

Compound: CC(C)C[C@@H]1NC(=O)[C@@]23C(=O)N[C@@H](Cc4ccccc4)C2[C@H](C)[C@@]2(C)O[C@H]2C3/C=C/CC/C=C/CNC(=O)[C@@H](C)NC1=O (some centres not stated)
z-score: 1.98
//
Compound: COCCOC(=O)N1C(=O)[C@@]2(c3cc(C#CC4(O)CCCCCC4)ccc31)[C@H](C(=O)NC[C@H](O)c1ccccc1)[C@H]1C(=O)O[C@H](c3ccccc3)[C@H](c3ccccc3)N1[C@@H]2c1ccccc1OCCO
z-score: 1.76
//
Compound: C=CCN1C(=O)[C@@]2(O[C@@H](CCO)[C@H]([Si](C)(C)c3ccc(OC)cc3)[C@H]2C)c2cc(N(C=O)c3ccccc3)ccc21
z-score: 0.412
//
Compound: C=C1C=C(Br)C2(OCCCO2)[C@H]2OC12 (some centres not stated)
z-score: -0.191
//
Compound: C=CCNC(=O)[C@@H]1[C@H]2C(=O)O[C@H](c3ccccc3)[C@H](c3ccccc3)N2[C@H](c2ccc(O)cc2)[C@@]12C(=O)Nc1ccc(C#Cc3ccc(OC)cc3)cc12
z-score: 1.12

(Q) Using the record for `CC(C)(C)OC(=O)CC[C@@]1(C(=O)NCc2ccccc2)N=C(c2ccc(OCCCO)cc2)O[C@@H]1c1ccccc1CN=[N+]=[N-]` , report its z-score.
(A) 2.98

(Q) What do you get for `O=C(NC1CC1)[C@@H]1c2ccccc2C(=O)N(Cc2ccccc2C(F)(F)F)[C@H]1c1ccc(CO)cc1` ?
(A) 1.59

(Q) # repeat for `O=C1N(CCS(=O)(=O)c2ccccc2)Cc2ccccc2[C@@H]2OC(c3ccc(OCCCO)cc3)=N[C@]12Cc1ccccc1`
(A) 2.11
